Cited source: patent US12466821B2

- SYSTEM: human HSV DNA polymerase UL30 (Human herpesvirus 1 (strain 17) (HHV-1) (Human herpes simplex virus 1), UniProt P04293)
- MEASUREMENT_PROTOCOL: HSV polymerase biochemical assay (molecular beacon-based)
Please respond with reported pIC50 for every item in the list.
Give bare numbers, as −log10 of the molar value.

Worked examples, 6 molecules total:
>  <MOLECULE>
C[C@@H](CCO)S(=O)(=O)C1(CN2CCn3c(ccc(C(=O)NCc4ccc(Cl)cc4)c3=O)C2=O)CC1 (single isomer, unassigned) [Example 7]

>  <MEASURED_VALUE>
7.45

$$$$
>  <MOLECULE>
NS(=O)(=O)C1(CN2CCn3c(ccc(C(=O)NCc4ccc(Cl)cc4)c3=O)C2=O)CC1 [Example 72-2]

>  <MEASURED_VALUE>
7.58

$$$$
>  <MOLECULE>
N#Cc1ccc(CNC(=O)c2ccc3n(c2=O)CCN(CC2(S(=O)(=O)CC4CC4)CC2)C3=O)cc1 [Example 107-2]

>  <MEASURED_VALUE>
6.82

$$$$
>  <MOLECULE>
N#Cc1ccc(CNC(=O)c2ccc3n(c2=O)CCN(CC2(S(=O)(=O)C4(C(F)F)CC4)CC2)C3=O)cc1Cl [Example 99-3]

>  <MEASURED_VALUE>
6.70

$$$$
>  <MOLECULE>
COCC1(CN2CCn3c(ccc(C(=O)NCc4ccc(Cl)cc4)c3=O)C2=O)CC1 [Example 69]

>  <MEASURED_VALUE>
5.28

$$$$
>  <MOLECULE>
CC1(S(=O)(=O)C2(CN3CCn4c(ccc(C(=O)NCc5ccc(C#N)c(F)c5)c4=O)C3=O)CC2)CC1 [Example 94-2]

>  <MEASURED_VALUE>
7.60

$$$$

Alright, here's another molecule for you.
Given N#Cc1ccc(CNC(=O)c2ccc3n(c2=O)CCN(CC2(S(=O)(=O)C4CC(F)(F)C4)CC2)C3=O)cc1 [Example 83] , state its recorded pIC50.
6.99
